Test system: WiDr
assay.notes: In vitro inhibition of cell growth in Human WiDr colon carcinoma cell line
Assay type: functional
experimental.setup: read-out: ID50 (the source's name)
parameter: pIC50
Numbers only, as −log10 of the molar value.

{"molecule": "CCCCSC[S+]([O-])C[C@H](C)NC(=O)/C=C/c1c(C)nc(O)nc1O (some centres undefined)", "assay.system": "WiDr", "pIC50": 6.80}
{"molecule": "CCCCSC[S+]([O-])C[C@H](CO)NC(=O)/C=C/c1c(C)nc(O)nc1O (some centres undefined)", "assay.system": "WiDr", "pIC50": 6.51}
{"molecule": "CCCCCCC[S+]([O-])C[C@H](CO)NC(=O)/C=C/c1c(C)nc(O)nc1O (some centres undefined)", "assay.system": "WiDr", "pIC50": 6.55}
{"molecule": "CCCCCC[S+]([O-])C[C@H](CO)NC(=O)/C=C/c1c(C)nc(O)nc1O (some centres undefined)", "assay.system": "WiDr", "pIC50": 6.41}
{"molecule": "CSC[S+]([O-])C[C@H](CO)NC(=O)/C=C/c1c(C)[nH]c(=O)[nH]c1=O (some centres undefined)", "assay.system": "WiDr", "pIC50": 6.04}

For each of the molecules below, state pIC50.
1. CCCCCCCCSC[S+]([O-])C[C@H](C)NC(=O)/C=C/c1c(C)nc(O)nc1O (some centres undefined)
2. CCCCCSC[S+]([O-])C[C@H](CO)NC(=O)/C=C/c1c(C)nc(O)nc1O (some centres undefined)
3. CCCSC[S+]([O-])C[C@H](CO)NC(=O)/C=C/c1c(C)nc(O)nc1O (some centres undefined)
4. CCCCCCCCSC[S+]([O-])C[C@H](CO)NC(=O)/C=C/c1c(C)nc(O)nc1O (some centres undefined)

Reply text:
1: 6.55; 2: 6.40; 3: 6.05; 4: 6.66
